- Tested on: HL-60
- Protocol: NCI tumour cell line growth inhibition, 48 h
Activity calls are given as the source filed them. Rule as the data show it: active = GI50 up to about 1.1 µM and inactive = higher.
Quantity: GI50

Below: 6 compounds and their reported GI50.
CCOC(=O)/C(=C\NCC(OCC)OCC)c1nc2ccccc2[nH]1 :: 23.9 µM (inactive)
COc1ccc(C(=O)C=C2NCCN2)cc1 :: > 100 µM (inactive)
COc1ccc(C2SCC(=O)N2NC(=O)C(C)Oc2ccccc2C)cc1 (stereo not given) :: 28.7 µM (inactive)
COC1=C(OC)C(=O)c2cc(SC)c(=O)c(SC)cc2C1=O :: 1.68 µM (inactive)
CCOC(=O)CCC(NC(=O)c1ccc(Nc2nc3ccccc3n3cccc23)cc1)C(=O)OCC (stereo not given) :: > 100 µM (inactive)
CC1(CC(=O)O)OC2CCCCCC2O1.NCc1ccccc1 (stereo not given) :: > 100 µM (inactive)

Okay, here is my list. What is GI50 for each of these?
1. O=C(NCCCCCCCCNC(=O)Nc1cccc2ccccc12)Nc1cccc2ccccc12
2. O=C(CCCCCCCCC(=O)OCCCn1cc(C(=O)NC(=O)OCc2ccccc2)c(=O)[nH]c1=O)OCCCn1cc(C(=O)NC(=O)OCc2ccccc2)c(=O)[nH]c1=O

Result:
1. 33.4 µM (inactive)
2. > 100 µM (inactive)

Okay, here is my list. What is GI50 for each of these?
1. CC(=O)OC1CC2C(C)(C)C(=O)C=C[C@]2(C)C2CCC3(C)C(=CCC3[C@H](CO)C[C@H](O)C(=O)C(C)(C)O)[C@]12C (stereo not given in full)
2. N#CC1(CCCCl)CCCCC1

Result:
1. 19.5 µM (inactive)
2. > 100 µM (inactive)
